- measured target: T1, HLA-A*02:01 (peptide-receptive MHC class I monomer from UV-ligand exchange) (human)
- T1 construct: Monomers were captured on streptavidin-coated plates
- protocol text: UV-exchange ELISA (anti-b2m); exchange yield grade: + >=10%, ++ >=20%, +++ >=50%, ++++ >=75%
recorded metric: peptide exchange yield

1) KLYSRLVYV [peptide KLYSRLVYV (SEQ ID NO 96)] : 20 to 50%
2) KLLKLFQGV [peptide KLLKLFQGV (SEQ ID NO 61)] : 50 to 75%
3) KTLGKLWRL [peptide KTLGKLWRL (SEQ ID NO 64)] : 20 to 50%
4) SLLKRDFGA [peptide SLLKRDFGA (SEQ ID NO 77)] : 20 to 50%
5) LLLEVVKQV [peptide LLLEVVKQV (SEQ ID NO 145)] : 50 to 75%
6) ALLSQQTHL [peptide ALLSQQTHL (SEQ ID NO 81)] : 50 to 75%
7) FLLGSEIKL [peptide FLLGSEIKL (SEQ ID NO 53)] : 50 to 75%
8) GLASKENFSNVSL [peptide GLASKENFSNVSL (SEQ ID NO 26)] : 20 to 50%
9) KLDIKVETV [peptide KLDIKVETV (SEQ ID NO 88)] : ≥ 75%
10) WLFDDGGLTL [peptide WLFDDGGLTL (SEQ ID NO 5)] : ≥ 75%
11) SLNKWIFTV [peptide SLNKWIFTV (SEQ ID NO 182)] : ≥ 75%
12) YALDLSTFL [peptide YALDLSTFL (SEQ ID NO 105)] : 50 to 75%
